- Test system: asthma-induced mice (inflammatory cells in the airway)
- test-protocol: Inflammatory cells in bronchoalveolar lavage fluid of asthma-induced mice
- Assay type: in vivo, BALB/c mice
- measurement-conditions: OVA asthma mice; 3.5 μmol/kg oral once a day for 7 days from day 25; result in words

- smiles-notation: "CCCCCCCC/C=C\\CCCCCCCC(=O)N[C@@H](Cc1c[nH]c2ccccc12)C(=O)O"
  inflow of eosinophils into the airway: "significantly inhibited"
- smiles-notation: "CCCCCCCC/C=C\\CCCCCCCC(=O)N[C@@H](C)C(=O)O"
  inflow of eosinophils into the airway: "significantly inhibited"
- smiles-notation: "CC(=O)N[C@@H](Cc1c[nH]c2ccccc12)C(=O)O"
  inflow of eosinophils into the airway: "significantly inhibited"
- smiles-notation: "CC(=O)N[C@@H](C)C(=O)O"
  inflow of eosinophils into the airway: "significantly inhibited"

###

- Tested on: asthma-induced mice (inflammatory cells in the airway)
- test-protocol: Inflammatory cells in bronchoalveolar lavage fluid of asthma-induced mice
- Assay type: in vivo, BALB/c mice
- measurement-conditions: mean, N=8; BAL fluid; OVA asthma mice; 3.5 μmol/kg oral once a day for 7 days
assay-metric: WBC Differential Counting (k/uL) MONO (monocytes)
Report the figure in k/uL without appending any unit label.

- smiles-notation: "CCCCCCCC/C=C\\CCCCCCCC(=O)N[C@@H](C)C(=O)O"
  endpoint-result: 0.01
- smiles-notation: "CC(=O)N[C@@H](Cc1c[nH]c2ccccc12)C(=O)O"
  endpoint-result: 0.02

Query :: Field request: WBC Differential Counting (k/uL) MONO (monocytes) | item: `CCCCCCCC/C=C\CCCCCCCC(=O)N[C@@H](Cc1c[nH]c2ccccc12)C(=O)O`
Result :: 0.01

Query :: Proceed to `CC(=O)N[C@@H](C)C(=O)O`
Result :: 0.01

###

- Test system: asthma-induced mice (inflammatory cells in the airway)
- test-protocol: Inflammatory cells in bronchoalveolar lavage fluid of asthma-induced mice
- Format: in vivo, BALB/c mice
- measurement-conditions: mean, N=8; BAL fluid; OVA asthma mice; 3.5 μmol/kg oral once a day for 7 days
Reported values of WBC Differential Counting (k/uL) EOS (eosinophils) for individual entries
Report the figure in k/uL without appending any unit label.

- molecule: "CC(=O)N[C@@H](C)C(=O)O [NAA, N-acetyl-L-alanine]"
  uom: "k/uL"
  endpoint-result: 0.04

Query :: Field request: WBC Differential Counting (k/uL) EOS (eosinophils) | item: CCCCCCCC/C=C\CCCCCCCC(=O)N[C@@H](C)C(=O)O [NOA, N-oleoyl-L-alanine]
Result :: 0.01

Query :: Proceed to CCCCCCCC/C=C\CCCCCCCC(=O)N[C@@H](Cc1c[nH]c2ccccc12)C(=O)O [NOT, N-oleoyl-L-tryptophan]
Result :: 0.07

Query :: Proceed to CC(=O)N[C@@H](Cc1c[nH]c2ccccc12)C(=O)O [NAT, N-acetyl-L-tryptophan]
Result :: 0.10

###

- Tested on: asthma-induced mice (inflammatory cells in the airway)
- test-protocol: Inflammatory cells in bronchoalveolar lavage fluid of asthma-induced mice
- Type: in vivo, BALB/c mice
- measurement-conditions: mean, N=8; BAL fluid; OVA asthma mice; 3.5 μmol/kg oral once a day for 7 days
Reported values of WBC Differential Counting (%) MONO (monocytes) for individual entries
Report the figure in % without appending any unit label.

- smiles-notation: "CCCCCCCC/C=C\\CCCCCCCC(=O)N[C@@H](Cc1c[nH]c2ccccc12)C(=O)O"
  uom: "%"
  endpoint-result: 3.6
- smiles-notation: "CC(=O)N[C@@H](C)C(=O)O"
  uom: "%"
  endpoint-result: 3.3
- smiles-notation: "CC(=O)N[C@@H](Cc1c[nH]c2ccccc12)C(=O)O"
  uom: "%"
  endpoint-result: 3.9

Read the next record carefully.
Query :: Field request: WBC Differential Counting (%) MONO (monocytes) | item: `CCCCCCCC/C=C\CCCCCCCC(=O)N[C@@H](C)C(=O)O`
Result :: 3.8
